Assembled from different publications: IC50 for UniProt P00533.

molecule: Cc1cc2cc(n1)-c1cnn(C)c1OCCC[C@@H](C1CC1)CN1/C(=N/C2=O)Nc2cc(N[C@H](C)C3COC3)ccc21
assay-system: UniProt P00533
IC50: 0.61 nM
//
molecule: C=CC(=O)N1CCN(c2ccc3ncnc(Nc4cc(Cl)c(Oc5ccc6c(c5)nnn6C)cc4F)c3n2)CC1
assay-system: UniProt P00533
IC50: 100 to 500 nM
//
molecule: C=CC(=O)N1CCCN(c2ccc3ncnc(Nc4cc(C)c(Oc5ccc6c(c5)nnn6C)cc4OC)c3n2)CC1
assay-system: UniProt P00533
IC50: 500 to 1000 nM
//
molecule: C=CC(=O)N1CCN(c2ccc3ncnc(Nc4cc(C)c(Oc5ccc6c(c5)nnn6C)cc4OC(F)F)c3n2)C[C@H]1C
assay-system: UniProt P00533
IC50: 100 to 500 nM
//
molecule: C=CC(=O)N1CCN(c2ccc3ncnc(Nc4cc(C)c(Oc5ccn6ncnc6c5)cc4OC)c3n2)C[C@H]1C
assay-system: UniProt P00533
IC50: < 50 nM
//
molecule: C=CC(=O)N[C@@H]1CCCN(c2ccc3ncnc(Nc4ccc(Oc5ccc6c(c5)nnn6C)c(C)c4F)c3n2)C1
assay-system: UniProt P00533
IC50: 100 to 500 nM
//
molecule: C=CC(=O)N(C)C1CCN(c2ncc3ncnc(Nc4ccc(Oc5ccc6c(c5)nnn6C)c(C)c4F)c3n2)C1 (stereo not drawn)
assay-system: UniProt P00533
IC50: 500 to 1000 nM
//
molecule: C=C(F)C(=O)N1CCN(c2ncc3ncnc(Nc4ccc(Oc5ccc6c(c5)nnn6C)c(C)c4)c3n2)C[C@@H]1CF (single isomer, unassigned)
assay-system: UniProt P00533
IC50: ≥ 1000 nM
//
molecule: CN1CCN([C@@H]2CCCN(c3cnc(C(N)=O)c(Nc4ccc(C5CCN(C6CN(c7ccc8c(C9CCC(=O)NC9=O)noc8c7)C6)CC5)cc4)n3)C2)C1=O (stereo partly drawn)
assay-system: UniProt P00533
IC50: 3320 nM
//
molecule: C=C(F)C(=O)N1CC[C@H](N(C)c2ccc3ncnc(Nc4ccc(Oc5ccc6c(c5)nnn6C)c(C)c4F)c3n2)C1
assay-system: UniProt P00533
IC50: ≥ 1000 nM
//
molecule: C=CC(=O)NC1CCN(c2ccc3ncnc(Nc4ccc(Oc5ccc6c(c5)nnn6C)c(C)c4F)c3n2)CC1
assay-system: UniProt P00533
IC50: 100 to 500 nM
//
molecule: C=CC(=O)N[C@@H]1CCN(c2ccc3ncnc(Nc4ccc(Oc5ccc6c(c5)nnn6C)c(C)c4F)c3n2)C[C@@H]1F
assay-system: UniProt P00533
IC50: 500 to 1000 nM
//
molecule: C=CC(=O)N1C[C@H]2CN(c3ncc4ncnc(Nc5ccc(Oc6ccc7c(c6)nnn7C)c(C)c5)c4n3)C[C@H]21
assay-system: UniProt P00533
IC50: 100 to 500 nM
//
molecule: C=CC(=O)N[C@H]1[C@@H]2C[C@H]1CN(c1ncc3ncnc(Nc4ccc(Oc5ccc6c(c5)nnn6C)c(C)c4)c3n1)C2
assay-system: UniProt P00533
IC50: 100 to 500 nM
//
molecule: C=CC(=O)N1CCN(c2ncc3ncnc(Nc4ccc(Oc5cc6nnn(C)c6c(C)c5F)c(C)c4)c3n2)C[C@H]1C
assay-system: UniProt P00533
IC50: 100 to 500 nM
//
molecule: C=CC(=O)N1CCC2(CC1)CN(c1ncc3ncnc(Nc4ccc(Oc5ccc6c(c5)nnn6C)c(C)c4)c3n1)C2
assay-system: UniProt P00533
IC50: ≥ 1000 nM
//
molecule: C=CC(=O)N1CCN(c2ccc3ncnc(Nc4cc(C)c(Oc5ccc6c(c5)nnn6C)cc4OC(F)F)c3n2)CC1(C)C
assay-system: UniProt P00533
IC50: 100 to 500 nM
//
molecule: C=CC(=O)N1[C@H](C)CN(c2ncc3ncnc(Nc4ccc(Oc5ccc6c(c5)nnn6C)c(C)c4)c3n2)C[C@H]1C
assay-system: UniProt P00533
IC50: ≥ 1000 nM
//
molecule: C=CC(=O)N(C)[C@H]1C[C@@H](Oc2ncc3ncnc(Nc4ccc(Oc5cc(F)c6c(c5)ncn6C)c(C)c4)c3n2)C1
assay-system: UniProt P00533
IC50: 100 to 500 nM
//
molecule: C=CC(=O)N1CCN(c2ccc3ncnc(Nc4ccc(Oc5ccc6c(c5)ncn6C(F)F)c(C)c4F)c3c2)CC1
assay-system: UniProt P00533
IC50: 50 to 100 nM
//
molecule: C=CC(=O)N1CCN(c2ncc3ncnc(Nc4ccc(Oc5cc(F)c6c(c5)nnn6C)c(C)c4F)c3n2)CC1
assay-system: UniProt P00533
IC50: < 50 nM
//
molecule: C=CC(=O)N1CCN(c2ncc3ncnc(Nc4ccc(Oc5ccc6c(c5)nnn6C)c(C)c4F)c3n2)C[C@H]1C
assay-system: UniProt P00533
IC50: 100 to 500 nM
//
molecule: C=C1CCN([C@H]2CCN(c3ncc4ncnc(Nc5ccc(Oc6ccn7ncnc7c6)c(C)c5)c4n3)C2)C1=O
assay-system: UniProt P00533
IC50: 500 to 1000 nM
//
molecule: C=CC(=O)N(C)C1CN(c2ncc3ncnc(Nc4ccc(Oc5ccc6c(c5)nnn6C)c(C)c4F)c3n2)C1
assay-system: UniProt P00533
IC50: 100 to 500 nM
//
molecule: C=CC(=O)N[C@@H]1C[C@H](F)CN(c2ccc3ncnc(Nc4ccc(Oc5ccc6c(c5)nnn6C)c(C)c4F)c3n2)C1
assay-system: UniProt P00533
IC50: < 50 nM
//
molecule: C=CC(=O)N1CCN(c2ccc3ncnc(Nc4ccc(Oc5ccc6c(c5)nnn6C)c(C)c4F)c3n2)C[C@H]1CC
assay-system: UniProt P00533
IC50: 100 to 500 nM
//
molecule: C=CC(=O)N[C@]1(C)CCN(c2ccc3ncnc(Nc4ccc(Oc5ccc6c(c5)nnn6C)c(C)c4)c3n2)C1
assay-system: UniProt P00533
IC50: 100 to 500 nM
